- test.description: MLM stability (High Activity)
- Type: in vitro ADME, BALB/c mice
- assay.setup: male, BALB/c, mouse, liver microsomes, pH 7.4, Condition 2 (High Activity), 1.0 mg protein/mL
Note to self: class = bucket of half-life at 1 μM, per lower: < 10 min; middle: ≥ 10 min and < 40 min; upper: ≥ 40 min

Known results for compounds:
| compound | class |
| --- | --- |
| O=C1CCCC[C@]1(NCCF)c1ccccc1 [Compound 86S] | lower |
| COCCNC1(c2ccccc2)CCCCC1=O (racemic) [Compound 29rac] | middle |
| O=C1CCCC[C@@]1(NCCF)c1ccccc1 [Compound 86R] | lower |
| O=C1CCCCC1(c1ccccc1)N1CCCC1 (racemic) [Compound 27rac] | middle |
| N[C@]1(c2ccccc2)CCCCC1=O [Compound 11S, (S)-2-amino-2-phenyl-cyclohexan-1-one] | upper |
| O=C1CCCC[C@@]1(c1ccccc1)N1CCCCC1 [Compound 26S] | middle |
| [2H]C([2H])([2H])N[C@@]1(c2ccccc2)CCCCC1=O [Compound 88R] | upper |
| O=C1CCCC[C@]1(NCCO)c1ccccc1 [Compound 30S] | lower |
| O=C1CCCC[C@]1(c1ccccc1)N1CCC1 [Compound 84R] | middle |
| CN[C@@]1(c2cccc(F)c2)CCCCC1=O [Compound 19R] | upper |

Which of the defined bands does the recorded half-life at 1 μM of CN[C@@]1(c2ccccc2C)CCCCC1=O [Compound 38R] sit within?
middle

Which of the defined bands does the recorded half-life at 1 μM of O=C1CCCC[C@]1(c1ccccc1)N1CCCCC1 [Compound 26R] sit within?
middle

Provenance of the data: patent US11344510B2
